test: yeast display, Sf9 membrane polyspecificity reagent, FACS + sequencing; frameworks hold sequencing errors

BIOSEQUENCE | polyreactivity (PSR sort gate)
QVQLVESGGGLVQAGGSLRLSCAASGFTFAVYAMGWYRQAPGKEREFVADITYDGGSTYYADSVKGRFTISRDNAKNTVYLQMNSLKPEDTAVYYGAAERLGAFQTPSNVSKYYYWGQGSQVTVSS | low polyreactivity
QVQLVESGGGLVQAGGSLRLSCAASGRIFEHNTMGWYRQAPGKERELVAAINWRGGSTYYADSVKGRFTISRYNAKNTVYLQMNSLKPEDTAVYYCNKYWWSYSYASGYNYWGQGTQVTVSS | high polyreactivity
QVQRVESGGGLVQAGGSLRISCAASGLTINNYARGWYRQAPGKERELVAAISFSGGDTYYADSVKGRFTISRDNAKNTVYLQMNSLKPEDTGVYYFAAESYSVLQMGYWGQGTQVTVSS | high polyreactivity
QVQLVESGGGLVQAGGSLRLSCASSGFTFHSYAMGWYRQAPGKERELVAAISTGGTRTYYADSVKGRFTISRDNAKNTVYLQMNSLKTEDTAVYYCAADLYRGVRIYSKYDSWGQGTQVTVSS | high polyreactivity
QVQLVESGGGLVQAGGSLRLSCAASGRTFNYYAMGWYRQAPGKERELVAAISWSGTPTYYADSVKGRFTISRDNAKNTVYLQMNSLKPEDTAVYYCAAGYNYTSYADLDYWGQGTQVTVSS | low polyreactivity
QVQVVESGGGLVQAGGSLRLSCAASGSTLSKNAMGWYRQAPGKERELVAAITLRGGSTSFADSVKGRFTISRDNAMNTVYLHMNSLKPEDTAVYYCNAVSKFDYGYWVQGTQVTVSS | high polyreactivity
QVHLVESGGGLVQAGGSLRLSCAASGYIFYAIAMGWYRQAPGKERELVAAISTGGNTNYADSVKGRFTISRDNAKNTVYVQMNSLKPEDTAVYYCAVRSTGPYRWRTPVTRDYWGQGTQVTVSS | low polyreactivity
QVQLVESGGGLVQAGGSLRLRCAASGGTFRYNAMGWYRQAPGKERELVAAISSSGGSTYYADSVKGRFTISRDNAKNTVYLQMNSLKPEDTAVYYCAAKRRRYVELDYWGQGTQVTVSS | high polyreactivity
QVQLVESAAGLVQAGGSLRLTCAASGLTFTTYAKGWYTQSPRKDRELVAAISRRGSRTYYADSVKGRFTISRDNAKNTVYLQMQSLKPDDTAVYYCNALTGSFKTDSFDYWGQGTQVTVSS | high polyreactivity
QVQLVESGGGLVQAGCSLRLSCAASGRIFSRYTMGWSRQAPGKERELVAAISSGGSTYYADSVKGRFTISLDNAKNTVYFQMNSLKPEDTAVYYCNTRYVGQRSTWVDQVRRYDYCGQGTQVTVSS | high polyreactivity
QVQLVESGGGLVQAGGSLRFSCAASGFTFTVYAMGWYRQAPGKGRELVAAISWNGGSTYYADSVKGRFTISRDNATNTDYLQRNSLKPEDTAVYYCNKYYYRGVRYYRDHDYWGQGTQVTVSS | high polyreactivity

====

test: yeast display, Sf9 membrane polyspecificity reagent, FACS + sequencing; frameworks hold sequencing errors

BIOSEQUENCE | polyreactivity (PSR sort gate)
QVQLVESGGGLVQAGGSLRLICAASGRIFKWYAMGWYRQAPGKERELVATITWSGGSTYYADSVKGRFTISRDNAKNTVYLQMNSLKPEDTAVYNCNADTWLALPGFDYWGQGTQVTVSS | high polyreactivity
QVQLVESGGGLVQAGGSLRLSCAASGRTFYSYAMGWYRQAPGKERELVAAISKRGTSTYYADSVKGRFTISRDNAKNTVYLQMNSLKPEDTAVYYCAAAYRGREVEYNCWGQGTQVTVSS | high polyreactivity
QFQLVESGGGLVQAGGSLRLSCAASGSTFDPNAMGGYRQAPGKERELVASITSRGGSTYYADSVKGRFTISRDNAKNTVYLQMNSLKPEDTAVYYCAAVGGATYSWNGYSWYPWHNYWGQGTQVTVSS | low polyreactivity
QVQLVESGGGLVQAGGSLRLSCAASGRTFWTNAMGWYRQAPGKERELVAAISYRAGSTYYADSVKGRFTISRDNAKNTVYLQMNSLKPEDTAVYYCATRAVYYYAGFDYWGQGTQVTVSS | high polyreactivity
QVQLVESGGGLVQAGGSLRLSCDDSGSTFVINDMGWYRQAPGKERELVAAITWGSGSTSYADSVKGRCTISRDNAKNTVYGQMISLKPEDTEVYYCAADVYLGLFGYYAEYNDYWGQGTQVTVSS | low polyreactivity
QVQLVESGGGLVQAGGSLRLSCAASGRILYYYVMGWYRQAPGKERELVAAITRGGSTDYADSVKGRFTISLDNAKNTVYLQMNSLKPEDTAVYYCAAVVYLHYSVDYWGQGSQVTVSS | low polyreactivity
QVQLVESGGGLVQAGGSLRLSGAAKGSTFRQYAMGWYRQATGKERELVAAISSGGRTNYPDSVKGRFTISRDNAKNTVYFHMNSQKPVDTAVYYSAARFYFQFRRFRRMDYWGQGTQVTVSS | high polyreactivity
QVQIVESGGVLVQAGGSLRLSCAASGLTFVQYDMGWYRHAPGKERELVADISGSAGDTYYADSVKGRFTISRDNAKKTVYLQMNSLKPEDTAVYYCNAYGAEYLQYGWRDYWGQGTQLTVSS | low polyreactivity
QVQLVESGGALVQAGGSIRLSCAASGRIFLHYAMGWYRQAPGKERELVAAISSSGGSTYYADSVKGRFTISRDNAKNTVYLQMKSLKPEDTAVYYCAAAYPVKTTEGYYYWGQGTHVTVSS | high polyreactivity
QVQLVESWGGLVQAGGSLRLSCAASGRIFGANARGWYRQAPGKERELVATITYGGTSTYYADSVKGRFTISRDNAKNSVYLQLNSLKPEYTADYYCAAASTYPLPYDFWGQGTQVTVSS | low polyreactivity
QVQLVESGGGLVQAGGSLRLSCAASGYIFGTDAMGRYRQAPGKERELVAAISSTGRTYYADSVKGRFTISRDNAKNTVYLQMNSLKPEDTAVYYCAADVRTPSEGYDYWGQGTQVTVSS | high polyreactivity

====

assay: yeast display, Sf9 membrane polyspecificity reagent, FACS + sequencing; frameworks hold sequencing errors

BIOSEQUENCE | polyreactivity (PSR sort gate)
QVQLVESGGGLVQAGGSLRLSCAASGFIFVGNVMGWYRQAPGKERELVARISTSGGSTYYADSVKGRFTISRDNAKNTVYLQMNSLKPEDTAVYYCAARRRTGREYGYWGQGTQVTVSS | high polyreactivity
QVHHVESAGGLVQAGGSLRLICAASGSTFDYYAMGWYRQEPGKERELLAGIDSAGSTNYADSVKGRFTISRDNAKNTVYLQMNSVKTGTYRGLYCNVGKTITTYAFPTFDYWGQGSQVTVSS | low polyreactivity
QDQLVESGGGLVQAGGSLRLSCAASGRTFIRNAMGWYRQAPGKERELVAAITNSGGSTYYADSVKGRFTISRDNAKNTVYLQMNSLNPEDTAVYDCNRVYRSHRPYTYPFSYDYWGQGTQVTVSS | high polyreactivity
QVQLVESGGGLVQAGGSLRLSCAASGNTFPGYAMGWYRQAPGKEREFVATITSNDGTTYYADSVKGRFTISRDNAKNTVYLQLNSLKPEDTAVYYCAKRLSDSWPPNWGYNYWGQGTQVTVSS | low polyreactivity
QVQLVESGGGLVQAGGSLRLSCAASGFIFIAYAMGWYRQAPGKERELVAAISKSGGNTYYADSVKGRFTISRDNAKNTVYLQMNSLKPEDTAVYYCATRPGYWRYEYWGQGTQVTVSS | high polyreactivity
QVQLVESGGCLVQAGGSLRLSCAASGRILLHNAMGWYRQAPGKERELVAAITNGGSTYYADSVKGRFTISRDNAKNTVYLQMNSLKPEDTAVYYCAARTRLAQYSRGRYRYDYWGQGTQVTVSS | high polyreactivity
QVQLVESGGGLVQAGGSLRLSCAASGGTFYDYAMGWYRQAPGKERELVAAISASGDSTYYADSVKGRFTISRDNAKNTVYLQMNSLKPEDTAVYYCAAEFTAFDGFDYWGQGTQVNVSS | low polyreactivity
QVQLGESGGGLVQAGGSLRLSCASSGRTFVVNAMGWYSQAPGKATEFDAAISYRGDSTYYAVSVKGRFTISRDNAKNTVYLQMNSLKPEATAVYYCAARVLGPGRRYYYWGQCTQVTVSS | high polyreactivity
QVQLVESGGGLVQAGGSLRLTCAASGSIFGDYAMGWYRQAPGKEREFVAGITRRGGRTYYADSVKGRFTISRDNAKNTVYLQMNSLKPEDTAVYYCNAVYSSSLRSKYDYWGQGTQVTVSS | high polyreactivity
QVQLVESGGGLVQAGGSLRLSCAASGRTFPGNAMGWYRQAPGKERELVAGISYRGGSTYYADSVKGRFTISRDYGKNTVYLQMNSLKPEDTAVYYCARDYSRHKGDYWGQGTQVNVSS | low polyreactivity
QVQLVESGGGLVQAGGSLRLSCAASGFTFKFNTMGWYRQAPGKERELVAAISWRGGDTSYADSVKGRFTISRDNAKNNVYLQMNSLKPEDTAVYYCAASPRYPYWYDYWGQGTQVTVSS | low polyreactivity

The measured values listed here are drawn from the nanobody polyreactivity screen of Harvey et al. (2022).
